molecular target: T1, human CD28 (human, UniProt P10747 19-220); experiment: flow cytometry MFI relative to WT CD80 IgV-Fc, Jurkat cells (CD28), 33.3 nM
T1 construct: whole, on cells; Jurkat/IL2 reporter cells, which endogenously express CD28
Measured Fold change to WT CD80, listed per entry for reference.
Give a bare numeral; the unit fold is implied.

variant CD80 IgV-Fc (inert) H18Y/A26P/E35D/M47Y/V68I/A71G/D90G (Fc fusion, not shown: inert human IgG1 Fc) VIHVTKEVKEVATLSCGYNVSVEELPQTRIYWQKDKKMVLTMMSGDYNIWPEYKNRTIFDITNNLSIIILGLRPSDEGTYECVVLKYEKGAFKREHLAEVTLSVKAD: 17.8
variant CD80 IgV-Fc (inert) H18Y/E35D/M47V/V68L/A71G/D90G (Fc fusion, not shown: inert human IgG1 Fc) VIHVTKEVKEVATLSCGYNVSVEELAQTRIYWQKDKKMVLTMMSGDVNIWPEYKNRTIFDITNNLSILILGLRPSDEGTYECVVLKYEKGAFKREHLAEVTLSVKAD: 25

Request the reported Fold change to WT CD80 associated with variant CD80 IgV-Fc (inert) H18V/A26Q/E35D/M47V/V68L/A71G/D90G (Fc fusion, not shown: inert human IgG1 Fc) VIHVTKEVKEVATLSCGVNVSVEELQQTRIYWQKDKKMVLTMMSGDVNIWPEYKNRTIFDITNNLSILILGLRPSDEGTYECVVLKYEKGAFKREHLAEVTLSVKAD
30.6

// same read-out, input: variant CD80 IgV-Fc (inert) H18V/A26G/E35D/M47V/V68M/A71G/D90G (Fc fusion, not shown: inert human IgG1 Fc) VIHVTKEVKEVATLSCGVNVSVEELGQTRIYWQKDKKMVLTMMSGDVNIWPEYKNRTIFDITNNLSIMILGLRPSDEGTYECVVLKYEKGAFKREHLAEVTLSVKAD
80.3

The reported numbers originate from patent US20210130436A1.
